- System: SK-MEL-5 melanoma
- Assay procedure: NCI tumour cell line growth inhibition, 48 h
Readout type: TGI

Illustrative cases are given below, each with its answer.
# Compound, TGI
rows = [
    ("Cc1c(Cl)cccc1Nc1ncccc1C(=O)O", "> 100 µM"),
    ("COc1ccc(/C=C(/C(=O)O)c2cc(OC)c(OC)c(OC)c2)cc1", "> 100 µM"),
    ("CCOC(=O)c1cnc2[nH]ccn2c1=O", "> 10 µM"),
]

Fill in TGI for each of the 3 compounds listed.
1. COC(=O)CCCC(=O)C(=Nc1c(Cl)cccc1Cl)NNc1ccc(Cl)cc1
2. CC(C)CCNC(=O)c1ccc(CNC(=O)/C=C/c2ccc(OCc3ccccc3)cc2)cc1
3. COc1cccc(C2c3cc4c(cc3OC(N3CCCC3)C2C)OCO4)c1OC (stereo unspecified)

# output
1. > 90.9 µM
2. > 100 µM
3. 12.5 µM

====

- Test system: T-47D breast
- Assay procedure: NCI tumour cell line growth inhibition, 48 h
Readout type: TGI

Illustrative cases are given below, each with its answer.
# Mol smiles, TGI
measured = [
    ("CCOP(=O)(OCC)/C(F)=C/c1ccccc1", "> 100 µM"),
    ("COc1cccc(-c2nc(-c3cnccn3)n(Cc3ccccc3)n2)c1", "> 100 µM"),
]

Moving on to another compound below.
# input What value of TGI has been reported for the following compound? Cc1nc2cc(C(F)(F)F)ccc2[nH]c1=O
# output > 100 µM

====

- Test system: OVCAR-3 ovarian
- Assay procedure: NCI tumour cell line growth inhibition, 48 h
Readout type: TGI

Fill in TGI for each of the 3 molecules listed.
1. O=C1C(Cl)N(c2ccccc2)C1c1c[nH]c2ccccc12 (stereo not drawn)
2. COc1ccc(N=Cc2cc(OC)c(OC)c(OC)c2)cc1
3. O=c1[nH]c(=O)n(C2CC(O)C(CO)O2)cc1C#Cc1c(F)c(F)c(F)c(F)c1F (stereo not drawn)

# output
1: > 100 µM; 2: > 100 µM; 3: > 100 µM

====

- Tested on: KM12 colon
- Assay procedure: NCI tumour cell line growth inhibition, 48 h
Readout type: TGI

Illustrative cases are given below, each with its answer.
# Compound, TGI
records = [
    ("CCOC(=O)CCCO", "> 100 µM"),
    ("O=S(=O)(O)C(O)/C=C/c1ccccc1 (configuration not stated)", "> 100 µM"),
    ("COc1cccc(C2c3cc4c(cc3OC(N3CCCC3)C2C)OCO4)c1OC (configuration not stated)", "15.1 µM"),
    ("Cc1c(Cl)cccc1Nc1ncccc1C(=O)O", "> 100 µM"),
    ("Nc1ncnc2c1ncn2C(=O)NC12CC3CC(CC(C3)C1)C2", "> 100 µM"),
    ("COc1cc([C@@H]2c3cc4c(cc3[C@@H](NC(=O)c3cccc([N+](=O)[O-])c3)C3COC(=O)[C@@H]32)OCO4)cc(OC)c1O (some centres not stated)", "10.8 µM"),
]

# input What value of TGI has been reported for the following compound? Clc1ccc(Cc2nc3cc4ccccc4cc3[nH]2)cc1
# output > 100 µM

====

- Test system: UACC-257 melanoma
- Assay procedure: NCI tumour cell line growth inhibition, 48 h
Readout type: TGI

Illustrative cases are given below, each with its answer.
# Compound, TGI
rows = [
    ("ClCc1ccccc1CSc1ncnc2nc[nH]c12", "> 60 µM"),
    ("Cc1cc2cccc(Cl)c2nc1C(=O)c1ccccc1", "66.9 µM"),
    ("CCOC(=O)C(=O)N1C(C)=C(C(=O)OCC)CC(C(=O)OCC)=C1C", "> 100 µM"),
    ("CC(C)(C)C1=NC(S)NC(CCC(=O)Nc2ccccc2[N+](=O)[O-])=C1 (configuration not stated)", "> 100 µM"),
    ("N#Cc1cnn2ccn(C3OC(COC(=O)c4ccccc4)C(OC(=O)c4ccccc4)C3OC(=O)c3ccccc3)c12 (configuration not stated)", "> 21.5 µM"),
    ("NS(=O)(=O)c1ccc(-n2nc(-c3ccc(Br)cc3)ccc2=O)cc1", "> 10 µM"),
    ("COC(=O)C(CC(=O)c1cc2c(cc1I)OCO2)Cc1cc(OC)c(OC)c(OC)c1I (configuration not stated)", "> 100 µM"),
    ("CC1=CC=CC(C)(C)CC1(O[Si](C)(C)C)C(F)(F)F (configuration not stated)", "> 100 µM"),
    ("CC(C)=CC1C(C(=O)O)C1(C)C (configuration not stated)", "> 750 µM"),
    ("NCCCC(N)C(=O)O (configuration not stated)", "> 100 µM"),
]

Fill in TGI for each of the 3 compounds listed.
1. O=C1/C(=C/c2ccc(Br)s2)NC(=S)N1CN1CCOCC1
2. CN1CCN(C(=S)N(C)C(=O)c2ccc(Cl)cc2)CC1
3. Fc1ccc(-c2nn(-c3ccccc3)cc2-c2nc3ccccc3o2)cc1

# output
1: > 100 µM; 2: > 100 µM; 3: 48.2 µM

====

Give measured TGI for each item. Keep answers brief.
- Tested on: DU-145 prostate
- Assay procedure: NCI tumour cell line growth inhibition, 48 h

Illustrative cases are given below, each with its answer.
# Mol smiles, Assay result
measured = [
    ("COc1cc2c(cc1OC)C(=O)/C(=C/c1cc(C)c(O)c(C)c1)C2", "> 100 µM"),
    ("C(=Nc1ccc(-c2nc3ccccc3s2)cc1)c1ccco1", "> 100 µM"),
    ("COC(=O)[C@@H](C)C[C@H](Cc1ccccc1)NC(=O)c1nc([C@@H](C[C@H](C(C)C)N(C)C(=O)[C@@H](NC(=O)[C@H]2CCCN2C)C(C)C)OC(C)=O)sc1C", "> 25 µM"),
]

Moving on to another compound below.
# input What value of TGI has been reported for the following compound? Cc1oc2nc(N(C)C)n3nnnc3c2c1C
# output > 100 µM

====

- System: SK-MEL-5 melanoma
- Assay procedure: NCI tumour cell line growth inhibition, 48 h
Readout type: log10 TGI (log10 of the value in µM)
Values below are the log10 of the recorded TGI, with µM as the unit.

# Compound, log10 TGI
measured = [
    ("N#Cc1c2c(c(Nc3ccc(F)cc3)n3c1nc1ccccc13)CCC2", 0.93),
    ("O=C(Cc1ccc(/C=C/C(=O)c2ncc[nH]2)cc1)Nc1ccc(Cl)cc1", 1.24),
    ("COc1cc([C@@H]2c3cc4c(cc3[C@@H](NC(=O)c3cccc([N+](=O)[O-])c3)C3COC(=O)[C@@H]32)OCO4)cc(OC)c1O (stereo not given in full)", 0.56),
    ("Cc1cc(O)cc(O)c1N=Nc1ccc([N+](=O)[O-])cc1", 1.58),
    ("C=CCCCC12CCCc3cccc(c31)NC2=O (stereo not given)", 1.53),
    ("CC1CCC[P+](Cc2ccccc2)(c2ccccc2)CC1 (stereo not given)", 1.56),
]

Fill in log10 TGI for each of the 2 compounds listed.
1. COc1ccccc1NC(=O)c1ccc(/C=C/C(=O)c2nccn2C)cc1
2. N#CSCc1cccc(Nc2cc(=O)[nH]c(=O)[nH]2)c1

# output
1: 0.23; 2: 2.00

====

- System: UACC-257 melanoma
- Assay procedure: NCI tumour cell line growth inhibition, 48 h
Give measured TGI for each item. Keep answers brief.

Illustrative cases are given below, each with its answer.
# Compound, Study system, Readout type, Assay result
measured = [
    ("Cc1nc2ccc([N+](=O)[O-])cc2c(=O)n1C(=S)Nc1cccc(Cl)c1", "UACC-257 melanoma", "TGI", "41.2 µM"),
    ("CCN(CCCN(CC)C(=O)N[C@@H](Cc1ccccc1)C(=O)NC)C(=O)N[C@@H](Cc1ccccc1)C(=O)NC", "UACC-257 melanoma", "TGI", "> 100 µM"),
    ("O=C1NC(=O)C2C(=O)NC(=O)C1C2(c1ccccc1)c1ccc(Cl)cc1 (centres undefined)", "UACC-257 melanoma", "TGI", "> 100 µM"),
]

Fill in TGI for each of the 3 compounds listed.
1. O=C1/C(=C/c2ccccc2)CN(C(=O)Oc2ccc(Cl)cc2)C/C1=C\c1ccccc1
2. O=[N+]([O-])C(=C(Sc1ccccc1)Sc1ccccc1)C(Cl)=C(Cl)Cl
3. COc1cc2c(cc1O)[C@H](Cc1ccc(Oc3cc(C[C@H]4c5cc(OC)c(OC)cc5CCN4C)ccc3OC)cc1)NCC2

# output
4.33 µM
1.1 µM
29.7 µM

====

- Test system: SK-MEL-5 melanoma
- Assay procedure: NCI tumour cell line growth inhibition, 48 h
Readout type: TGI

Illustrative cases are given below, each with its answer.
# Compound, TGI
data = [
    ("CCN(CCCN(CC)C(=O)N[C@@H](Cc1ccccc1)C(=O)NC)C(=O)N[C@@H](Cc1ccccc1)C(=O)NC", "> 100 µM"),
    ("CC(=O)OCCc1cccnc1/C=N/O", "> 100 µM"),
]

Fill in TGI for each of the 4 compounds listed.
1. Cc1c(N2C(=O)/C(=C\c3ccccc3O)N=C2c2ccccc2)c(=O)n(-c2ccccc2)n1C
2. CC(C)/C(Cl)=N\OC(=O)NNc1ccccc1
3. O=C(/C=C/c1cccs1)c1ccc(Cl)cc1
4. COc1nc2c(cc1S(=O)(=O)c1ccccc1)CCc1c-2cnn1-c1ccccc1Cl

# output
1. > 100 µM
2. > 54 µM
3. > 100 µM
4. > 100 µM
